The values you see were collected from patent US20070191406A1.

Target: CCR5 (Homo sapiens)
Construct: host or cells: CEM-NKr-CCR5-Luc
Sequence (P51681 whole entry): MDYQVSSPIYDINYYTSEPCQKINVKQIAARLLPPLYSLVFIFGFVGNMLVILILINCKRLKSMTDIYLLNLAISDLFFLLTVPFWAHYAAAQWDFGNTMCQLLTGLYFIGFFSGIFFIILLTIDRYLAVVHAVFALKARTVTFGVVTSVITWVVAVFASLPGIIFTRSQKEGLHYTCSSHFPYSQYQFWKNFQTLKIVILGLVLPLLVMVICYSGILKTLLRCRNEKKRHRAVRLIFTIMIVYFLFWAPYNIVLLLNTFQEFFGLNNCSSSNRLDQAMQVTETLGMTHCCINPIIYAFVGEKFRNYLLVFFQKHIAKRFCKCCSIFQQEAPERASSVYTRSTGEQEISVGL
Assay: CCR5-Mediated CCF Assay
Assay type: cell-based
Settings: Hela-R5 cells (gp160 from R5-tropic virus, HIV-1 Tat) co-cultured 24 hrs with CEM-NKr-CCR5-Luc cells; luciferase readout
Quantity: pIC50
Answers are plain numbers, as −log10 of the molar value.

As a guide, the following entries are already answered.
>>> reported_measurement("Cc1cccc(C)c1C(=O)N1CC2CN(CC[C@H](NC(=O)C3CCCC3C(=O)O)c3ccccc3)CC2C1 (some centres unmarked) [I-33]")
8.77
>>> reported_measurement("Cc1ncnc(C)c1C(=O)N1CC2CN(CC[C@H](NC(=O)C3CCCC(=O)C3)c3cccc(F)c3)CC2C1 (some centres unmarked) [I-24]")
8.19

I'm hoping you can list pIC50 for every compound here, please.
1. Cc1ccnc(C)c1C(=O)N1CC2CN(CC[C@H](NC(=O)C3CCC(=O)C3)c3cccc(F)c3)CC2C1 (some centres unmarked) [I-23]
2. Cc1ccc(N(CCCN2CC3CN(C(=O)c4c(C)cccc4C)CC3C2)C(=O)[C@@H]2CC[C@H](C(=O)O)C2)cc1Cl (some centres unmarked) [I-4]
3. COC(=O)[C@H]1CC[C@@H](C(=O)N(CCCN2C[C@@H]3CN(C(=O)c4c(C)ncnc4C)C[C@@H]3C2)c2ccc(C)c(Cl)c2)CC1 [I-31]

Result:
1: 8.13; 2: 8.01; 3: 8.46
